Assay: Selectivity index, ratio of GI50 for human THP1 cells to MIC90 for active Mycobacterium bovis BCG ATCC 35734
Type: toxicity
Conditions: THP-1 cells, read-out: Selectivity Index
Known selectivity ratio of a selection of compounds

Check out these entries, answers already filled in.
{"columns": ["Entry Smiles", "selectivity ratio"],
 "data": [
  ["Cc1cc2oc(-c3cc4ccccc4s3)cc(=O)c2cc1Cl", "> 30"],
  ["Cc1ccc2oc(-c3cc4ccccc4s3)cc(=O)c2c1", "> 22"]
]}

Field: next compound
# query: selectivity ratio of entry Cc1cc(O)c(C(=O)CC(=O)c2cc3ccccc3s2)cc1Cl > 22
